biological target: Human immunodeficiency virus type 1 reverse transcriptase (Human immunodeficiency virus 1); assay: Inhibition of recombinant HIV-1 reverse transcriptase at 0.66 mM incubated for 1 hr by ELISA relative to control
Recorded Metric: inhibition

State the measured inhibition (Human immunodeficiency virus type 1 reverse transcriptase (Human immunodeficiency virus 1)) of Cc1cc(C)cc(S(=O)(=O)c2c(C(=O)NCc3cn(CCCc4ccccc4)nn3)[nH]c3ccc(Cl)cc23)c1
> 85%

State the measured inhibition (Human immunodeficiency virus type 1 reverse transcriptase (Human immunodeficiency virus 1)) of Cc1cccc(Cn2cc(CNC(=O)c3[nH]c4ccc(Cl)cc4c3S(=O)(=O)c3cc(C)cc(C)c3)nn2)c1
< 85%

State the measured inhibition (Human immunodeficiency virus type 1 reverse transcriptase (Human immunodeficiency virus 1)) of Cc1cc(C)cc(S(=O)(=O)c2c(C(=O)NCc3cn(Cc4cccc([N+](=O)[O-])c4)nn3)[nH]c3ccc(Cl)cc23)c1
> 85%

State the measured inhibition (Human immunodeficiency virus type 1 reverse transcriptase (Human immunodeficiency virus 1)) of Cc1cc(C)cc(S(=O)(=O)c2c(C(=O)NCc3cn(CCc4ccsc4)nn3)[nH]c3ccc(Cl)cc23)c1
< 85%

State the measured inhibition (Human immunodeficiency virus type 1 reverse transcriptase (Human immunodeficiency virus 1)) of Cc1cc(C)cc(S(=O)(=O)c2c(C(=O)NCc3cn(Cc4ccc5ccccc5c4)nn3)[nH]c3ccc(Cl)cc23)c1
< 85%

====

tested on: Human immunodeficiency virus 1; test: Antiviral activity against wild-type HIV-1 IIIB infected in human MT4 cells incubated for 5 days by spectrophometry based MTT assay; type: functional, organism-based; conditions: Human immunodeficiency virus 1, IIIB, MT4, 120 h
# EC50 annotations

Below: 3 molecules and their reported EC50.
• COC(=O)Cn1cc(CNC(=O)c2[nH]c3ccc(Cl)cc3c2S(=O)(=O)c2cc(C)cc(C)c2)nn1 = 45 nM
• Cc1cc(C)cc(S(=O)(=O)c2c(C(=O)NCc3cn(Cc4ccccc4[N+](=O)[O-])nn3)[nH]c3ccc(Cl)cc23)c1 = 24 nM
• Cc1cc(C)cc(S(=O)(=O)c2c(C(=O)NCc3cn(Cc4cccc([N+](=O)[O-])c4)nn3)[nH]c3ccc(Cl)cc23)c1 = 230 nM

State the measured EC50 (Human immunodeficiency virus 1) of CCOC(=O)Cn1cc(CNC(=O)c2[nH]c3ccc(Cl)cc3c2S(=O)(=O)c2cc(C)cc(C)c2)nn1
32 nM

State the measured EC50 (Human immunodeficiency virus 1) of Cc1cc(C)cc(S(=O)(=O)c2c(C(=O)NCc3cn(CCCc4ccccc4)nn3)[nH]c3ccc(Cl)cc23)c1
390 nM

State the measured EC50 (Human immunodeficiency virus 1) of Cc1cc(C)cc(S(=O)(=O)c2c(C(=O)NCc3cn(Cc4cccc(C#N)c4)nn3)[nH]c3ccc(Cl)cc23)c1
62 nM

====

target: UniProt Q72547; assay: Inhibition of recombinant HIV-1 reverse transcriptase at 0.66 mM incubated for 1 hr by ELISA relative to control
Recorded Metric: inhibition

Below: 2 molecules and their reported inhibition.
- Cc1cc(C)cc(S(=O)(=O)c2c(C(=O)NCc3cn(Cc4cccc5ccccc45)nn3)[nH]c3ccc(Cl)cc23)c1: > 85%
- COC(=O)c1cccc(-n2cc(CNC(=O)c3[nH]c4ccc(Cl)cc4c3S(=O)(=O)c3cc(C)cc(C)c3)nn2)c1: < 85%

Determine its reported inhibition: COC(=O)Cn1cc(CNC(=O)c2[nH]c3ccc(Cl)cc3c2S(=O)(=O)c2cc(C)cc(C)c2)nn1
> 85%

====

# EC50 annotations
tested on: Human immunodeficiency virus 1; test: Antiviral activity against wild-type HIV-1 IIIB infected in human MT4 cells incubated for 5 days by spectrophometry based MTT assay; format: functional, organism-based; details: Human immunodeficiency virus 1, IIIB, MT4, 120 h
Be sure to follow the number with its unit.

• Cc1cc(C)cc(S(=O)(=O)c2c(C(=O)NCc3cn(Cc4cccc5ccccc45)nn3)[nH]c3ccc(Cl)cc23)c1 = 61 nM
• COC(=O)CCCn1cc(CNC(=O)c2[nH]c3ccc(Cl)cc3c2S(=O)(=O)c2cc(C)cc(C)c2)nn1 = 35 nM
• Cc1cc(C)cc(S(=O)(=O)c2c(C(=O)NCc3cn(CSc4ccccc4)nn3)[nH]c3ccc(Cl)cc23)c1 = 40 nM
• Cc1cc(C)cc(S(=O)(=O)c2c(C(=O)NCc3cn(CC(=O)Nc4ccc(F)cc4)nn3)[nH]c3ccc(Cl)cc23)c1 = 87 nM
• Cc1cc(C)cc(S(=O)(=O)c2c(C(=O)NCc3cn(CCc4ccccc4)nn3)[nH]c3ccc(Cl)cc23)c1 = 150 nM
• Cc1cc(C)cc(S(=O)(=O)c2c(C(=O)NCc3cn(CC(=O)Nc4ccc(C(F)(F)F)cc4)nn3)[nH]c3ccc(Cl)cc23)c1 = 110 nM

Determine its reported EC50: Cc1cc(C)cc(S(=O)(=O)c2c(C(=O)NCc3cn(CC(=O)Nc4ccc(Br)cc4)nn3)[nH]c3ccc(Cl)cc23)c1
68 nM

Determine its reported EC50: Cc1cn([C@H]2C[C@H](N=[N+]=[N-])[C@@H](CO)O2)c(=O)[nH]c1=O
19 nM
